Values were extracted from ChEMBL document CHEMBL1139723.

# TEST DESCRIPTION: Cytotoxicity against NCI-H460 cells
# Format: cell-based
# CONDITION LABEL: human
Rule for this label: y means GI50 is less than 2000 nM; n means GI50 is at least 2000 nM.

These recorded examples may help you get a feel for the data.
> print(dat)
                            chemical.smiles  label
1  COc1cc(-c2nccn2-c2ccc3ccccc3c2)cc(OC)c1OC      y
2  COc1cc(-n2cncc2-c2ccc3ccccc3c2)cc(OC)c1OC      y
3  COc1ccc(-c2cncn2-c2cc(OC)c(OC)c(OC)c2)cc1      y
4         COc1ccc(-c2cncn2-c2ccc(OC)cc2)cc1      n
5    COc1ccc(/C=C\c2cc(OC)c(OC)c(OC)c2)cc1O      y

(Q) Could you please tell me whether GI50 recorded for COc1ccc(-c2cncn2-c2cc(OC)c(OC)c(OC)c2)cc1F is less than 2000 nM?
(A) y

(Q) Could you please tell me whether GI50 recorded for COc1ccc(-c2nccn2-c2cc(OC)c(OC)c(OC)c2)cc1 is less than 2000 nM?
(A) y

(Q) Could you please tell me whether GI50 recorded for COc1cc(-n2ccnc2-c2ccc3ccccc3c2)cc(OC)c1OC is less than 2000 nM?
(A) y

(Q) Could you please tell me whether GI50 recorded for COc1ccc(-n2ccnc2-c2cc(OC)c(OC)c(OC)c2)cc1 is less than 2000 nM?
(A) n

(Q) Could you please tell me whether GI50 recorded for COc1ccc(-c2nccn2-c2ccc(OC)cc2)cc1 is less than 2000 nM?
(A) n
